Cited source for all entries: paper PMC10873978

- Test system: MCF7 cell line
- test: In vitro cytotoxic activity, MTT method, MCF7
- Type: cell-based, human
- experimental_parameters: MCF7, 6.25 µMol
test_readout: Viability %
Your reply should be a number followed by the unit it is expressed in.

Solved cases below.
{"compound": "CC(=O)C1C(c2ccc(N(C)C)cc2)c2c(C)nc(SCC#N)c(C#N)c2CC1(C)O (stereo not drawn) [Compound 6]", "Viability %": "6.618%"}
{"compound": "CC(=O)c1ccc(NC(=O)CSc2nc(C)c3c(c2C#N)CC(C)(O)C(C(C)=O)C3c2ccc(N(C)C)cc2)cc1 (stereo not drawn) [Compound 7d]", "Viability %": "5.964%"}

Okay, now this compound:
Query: Send back MCF7 cell line Viability % of CCOC(=O)CSc1nc(C)c2c(c1C#N)CC(C)(O)C(C(C)=O)C2c1ccc(N(C)C)cc1 (stereo not drawn) [Compound 4] only.
Result: 17.93%

* * *

- system_under_test: Dihydrofolate Reductase (DHFR) (Homo sapiens, UniProt P00374)
- Sequence (P00374 whole entry): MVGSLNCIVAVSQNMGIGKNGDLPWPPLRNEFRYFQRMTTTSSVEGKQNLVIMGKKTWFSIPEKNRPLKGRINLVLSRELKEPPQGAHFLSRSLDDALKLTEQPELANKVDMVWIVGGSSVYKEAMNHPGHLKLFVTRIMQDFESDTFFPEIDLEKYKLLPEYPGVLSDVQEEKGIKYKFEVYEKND
test_readout: pIC50
Answers are plain numbers, as −log10 of the molar value.

Query: Give pIC50 for the following compound: CC(=O)c1ccc(NC(=O)c2sc3nc(C)c4c(c3c2N)CC(C)(O)C(C(C)=O)C4c2ccc(N(C)C)cc2)cc1 (stereo not shown) [Compound 8d]
Result: 6.70

* * *

- Test system: A549 cell line
- test: In vitro cytotoxic activity, MTT method, A549
- experimental_parameters: A549, Conc. 6.25 µMol
For each entry below, report its Viability % value.
Numbers only, in %.

Solved cases below.
{"compound": "CC(=O)C1C(c2ccc(N(C)C)cc2)c2c(C)nc(SCC(=O)Nc3ccc(Cl)cc3)c(C#N)c2CC1(C)O (stereo not shown)", "Viability % (%)": 9.428}
{"compound": "CC(=O)C1C(c2ccc(N(C)C)cc2)c2c(C)nc(SCC#N)c(C#N)c2CC1(C)O (stereo not shown)", "Viability % (%)": 25.29}
{"compound": "CC(=O)C1C(c2ccc(N(C)C)cc2)c2c(C)nc3sc(C(=O)Nc4ccccc4)c(N)c3c2CC1(C)O (stereo not shown)", "Viability % (%)": 11.76}
{"compound": "CSc1nc(C)c2c(c1C#N)CC(C)(O)C(C(C)=O)C2c1ccc(N(C)C)cc1 (stereo not shown)", "Viability % (%)": 29.27}
{"compound": "CC(=O)C1C(c2ccc(N(C)C)cc2)c2c(C)nc3sc(C(=O)Nc4ccc(C)cc4)c(N)c3c2CC1(C)O (stereo not shown)", "Viability % (%)": 15.7}
{"compound": "COc1cccc2c1C(=O)c1c(O)c3c(c(O)c1C2=O)C[C@@](O)(C(=O)CO)C[C@@H]3O[C@H]1C[C@H](N)[C@H](O)[C@H](C)O1", "Viability % (%)": 4.651}

Okay, now this compound:
Query: Send back A549 cell line Viability % of CC(=O)c1ccc(NC(=O)c2sc3nc(C)c4c(c3c2N)CC(C)(O)C(C(C)=O)C4c2ccc(N(C)C)cc2)cc1 (stereo not shown) only.
Result: 11.6

* * *

- Tested on: MCF7 cell line
- test: In vitro cytotoxic activity, MTT method, MCF7
- Format: cell-based, human
- experimental_parameters: MCF7, 6.25 µMol
- Protocol: Cell lines: The in vitro human breast cancerous cell line (MCF7), lung cancerous cell lines (A549) and normal cell lines were purchased from Serum and Vaccine formulation in Cairo-Egypt. In vitro cytotoxic activity of all synthesized compounds against two human breast cell line (MCF7) and lung cell lines (A549) was evaluated according to the MTT method. […] Finally read the optical density at 560 nm and subtract background at 620 nm. […]
test_readout: Viability %

Solved cases below.
{"compound": "CC(=O)C1C(c2ccc(N(C)C)cc2)c2c(C)nc(SCC(N)=O)c(C#N)c2CC1(C)O (stereo not shown)", "Viability %": "6.087%"}
{"compound": "CC(=O)C1C(c2ccc(N(C)C)cc2)c2c(C)nc(SCC(=O)Nc3ccccc3)c(C#N)c2CC1(C)O (stereo not shown)", "Viability %": "28.15%"}
{"compound": "CC(=O)C1C(c2ccc(N(C)C)cc2)c2c(C)[nH]c(=S)c(C#N)c2CC1(C)O (stereo not shown)", "Viability %": "13.07%"}
{"compound": "COc1cccc2c1C(=O)c1c(O)c3c(c(O)c1C2=O)C[C@@](O)(C(=O)CO)C[C@@H]3O[C@H]1C[C@H](N)[C@H](O)[C@H](C)O1 [Doxorubicin, reference compound]", "Viability %": "6.55%"}
{"compound": "CSc1nc(C)c2c(c1C#N)CC(C)(O)C(C(C)=O)C2c1ccc(N(C)C)cc1 (stereo not shown)", "Viability %": "4.861%"}
{"compound": "CC(=O)C1C(c2ccc(N(C)C)cc2)c2c(C)nc(SCC(=O)Nc3ccc(Cl)cc3)c(C#N)c2CC1(C)O (stereo not shown)", "Viability %": "13.64%"}

Okay, now this compound:
Query: Give Viability % for the following compound: CC(=O)C1C(c2ccc(N(C)C)cc2)c2c(C)nc(SCC(=O)Nc3ccc(C)cc3)c(C#N)c2CC1(C)O (stereo not shown)
Result: 6.904%

* * *

For each entry below, report its Viability % value.
- System: MCF7 cell line
- test: In vitro cytotoxic activity, MTT method, MCF7
- Assay type: cell-based, human
- experimental_parameters: MCF7, Conc. 0.0975 µMol
Give bare numbers, in %.

# batch size: 4; output Viability % per entry
1. CC(=O)c1ccc(NC(=O)c2sc3nc(C)c4c(c3c2N)CC(C)(O)C(C(C)=O)C4c2ccc(N(C)C)cc2)cc1 (stereo not shown) [Compound 8d]
2. CC(=O)C1C(c2ccc(N(C)C)cc2)c2c(C)nc3sc(C(=O)Nc4ccc(Cl)cc4)c(N)c3c2CC1(C)O (stereo not shown) [Compound 8c]
3. CC(=O)C1C(c2ccc(N(C)C)cc2)c2c(C)nc3sc(C(=O)Nc4ccccc4)c(N)c3c2CC1(C)O (stereo not shown) [Compound 8a]
4. CC(=O)C1C(c2ccc(N(C)C)cc2)c2c(C)nc3sc(C(=O)Nc4ccc(C)cc4)c(N)c3c2CC1(C)O (stereo not shown) [Compound 8b]

Result:
54.4424
69.5434
100.6
99.8766

* * *

- Tested on: A549 cell line
- test: In vitro cytotoxic activity, MTT method, A549
- experimental_parameters: A549, Conc. 12.5 µMol
For each entry below, report its Viability % value.
Numbers only, in %.

{"compound": "CC(=O)C1C(c2ccc(N(C)C)cc2)c2c(C)nc(SCC(=O)Nc3ccccc3)c(C#N)c2CC1(C)O (stereo not shown)", "system_under_test": "A549 cell line", "unit_of_measure": "%", "Viability %": 8.669}
{"compound": "CC(=O)c1ccc(NC(=O)CSc2nc(C)c3c(c2C#N)CC(C)(O)C(C(C)=O)C3c2ccc(N(C)C)cc2)cc1 (stereo not shown)", "system_under_test": "A549 cell line", "unit_of_measure": "%", "Viability %": 7.022}
{"compound": "CC(=O)c1ccc(NC(=O)c2sc3nc(C)c4c(c3c2N)CC(C)(O)C(C(C)=O)C4c2ccc(N(C)C)cc2)cc1 (stereo not shown)", "system_under_test": "A549 cell line", "unit_of_measure": "%", "Viability %": 3.59}
{"compound": "CC(=O)C1C(c2ccc(N(C)C)cc2)c2c(C)nc3sc(C(=O)Nc4ccccc4)c(N)c3c2CC1(C)O (stereo not shown)", "system_under_test": "A549 cell line", "unit_of_measure": "%", "Viability %": 3.314}
{"compound": "CC(=O)C1C(c2ccc(N(C)C)cc2)c2c(C)nc(SCC(=O)Nc3ccc(C)cc3)c(C#N)c2CC1(C)O (stereo not shown)", "system_under_test": "A549 cell line", "unit_of_measure": "%", "Viability %": 6.154}
{"compound": "CSc1nc(C)c2c(c1C#N)CC(C)(O)C(C(C)=O)C2c1ccc(N(C)C)cc1 (stereo not shown)", "system_under_test": "A549 cell line", "unit_of_measure": "%", "Viability %": 10.57}
{"compound": "CC(=O)C1C(c2ccc(N(C)C)cc2)c2c(C)nc(SCC#N)c(C#N)c2CC1(C)O (stereo not shown)", "system_under_test": "A549 cell line", "unit_of_measure": "%", "Viability %": 11.48}
{"compound": "CCOC(=O)CSc1nc(C)c2c(c1C#N)CC(C)(O)C(C(C)=O)C2c1ccc(N(C)C)cc1 (stereo not shown)", "system_under_test": "A549 cell line", "unit_of_measure": "%", "Viability %": 4.063}

# batch size: 2; output Viability % per entry
1. CC(=O)C1C(c2ccc(N(C)C)cc2)c2c(C)nc3sc(C(=O)Nc4ccc(C)cc4)c(N)c3c2CC1(C)O (stereo not shown)
2. CC(=O)C1C(c2ccc(N(C)C)cc2)c2c(C)[nH]c(=S)c(C#N)c2CC1(C)O (stereo not shown)

Result:
1. 6.746
2. 9.231
